target: UniProt P49841; experiment: GSK3b TR-FRET kinase assay; assay type: biochemical; settings: 1 nM GSK3b, 2 μM ATP, 30 minute preincubation, Table 16; read-out: GSK3-B TR-FRET BIOCHEMICAL (TR-FRET)
Sequence (P49841 whole entry): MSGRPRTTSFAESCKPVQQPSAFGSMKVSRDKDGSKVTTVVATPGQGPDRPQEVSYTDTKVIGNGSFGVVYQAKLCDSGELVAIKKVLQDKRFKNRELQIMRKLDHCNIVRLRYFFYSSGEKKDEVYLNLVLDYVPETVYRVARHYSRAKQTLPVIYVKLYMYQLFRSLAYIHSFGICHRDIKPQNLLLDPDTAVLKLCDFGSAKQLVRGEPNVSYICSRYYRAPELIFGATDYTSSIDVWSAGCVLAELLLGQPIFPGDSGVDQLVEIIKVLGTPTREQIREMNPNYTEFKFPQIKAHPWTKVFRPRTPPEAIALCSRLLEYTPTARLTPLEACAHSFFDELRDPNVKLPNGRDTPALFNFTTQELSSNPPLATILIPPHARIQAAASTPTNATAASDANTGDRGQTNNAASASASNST
pIC50: −log10 of the molar value.
Assign pIC50 to each entry below.

In the examples that follow, each entry is paired with its recorded pIC50.
> print(dat)
                                   molecule  targetortestsystem  propertyname    testresult
1  O=C1CC2(CSC2)CC2=C1C1(CCCC1)c1c[nH]nc1N2      UniProt P49841         pIC50  6.00 to 7.00
2  CC1(C)CC(=O)C2=C(C1)Nc1n[nH]cc1[C@]21CCCOCC1      UniProt P49841         pIC50        ≥ 7.00
3  CC1(C)CC(=O)C2=C(C1)Nc1n[nH]cc1C21CCN(S(=O)(=O)c2ccc(Cl)cc2)CC1      UniProt P49841         pIC50        ≥ 7.00
4  CC[C@@]1(c2ccccc2)C2=C(CC(C)(C)[C@@H](F)C2=O)Nc2n[nH]cc21      UniProt P49841         pIC50        < 5.30

Please supply pIC50 for each of the following items, keeping them in order.
1. CCC1(c2cccc(-c3ccnc(CO)c3)c2)C2=C(CC(C)(C)CC2=O)Nc2n[nH]cc21 (centres unmarked)
2. CCC1(c2cccc(-c3ccnn3C)c2)C2=C(CC(C)(C)CC2=O)Nc2n[nH]c(C(F)(F)F)c21 (centres unmarked) [Compound 947365]
3. Cn1nccc1-c1cccc2c1CCC[C@]21C2=C(CC(C)(C)CC2=O)Nc2n[nH]cc21

["6.00 to 7.00", "5.30 to 6.00", "≥ 7.00"]

Reported pIC50 for "CC1(C)CC(=O)C2=C(C1)Nc1n[nH]cc1[C@]21CCN(S(=O)(=O)C2CCCC2)C1" was ≥ 7.00

----------
target: GSK3α (GST-full length GSK3α) (Homo sapiens (Human), UniProt P49840); assay: GSK3α TR-FRET kinase assay; assay type: biochemical; details: 1 nM GSK3α, 4 μM ATP, 30 minute preincubation, Table 16; read-out: GSK3-A TR-FRET BIOCHEMICAL (TR-FRET); IC50
Sequence (P49840 whole entry): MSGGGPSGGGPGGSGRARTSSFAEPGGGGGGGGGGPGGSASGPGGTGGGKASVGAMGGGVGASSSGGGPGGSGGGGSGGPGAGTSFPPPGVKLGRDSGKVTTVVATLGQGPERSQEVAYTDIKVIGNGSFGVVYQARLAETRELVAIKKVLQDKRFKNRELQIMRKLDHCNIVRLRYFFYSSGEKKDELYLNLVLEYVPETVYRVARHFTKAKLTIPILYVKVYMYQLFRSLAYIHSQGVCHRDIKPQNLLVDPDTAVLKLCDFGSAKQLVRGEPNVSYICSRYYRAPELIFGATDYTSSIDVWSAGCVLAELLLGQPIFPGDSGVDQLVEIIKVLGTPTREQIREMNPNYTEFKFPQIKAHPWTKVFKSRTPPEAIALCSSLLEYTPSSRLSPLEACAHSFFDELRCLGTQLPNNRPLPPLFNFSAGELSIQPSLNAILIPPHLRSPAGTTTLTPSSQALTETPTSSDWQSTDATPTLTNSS
propertyName: IC50

> print(dat)
                                   molecule                        targetortestsystem   testresult
1  CC1CC(=O)C2=C(C1)Nc1n[nH]cc1C21CCOCC1 (stereo not shown)  GSK3α (GST-full length GSK3α) (Homo sapiens (Human), UniProt P49840)  0.1 to 1 µM

Please supply IC50 for each of the following items, keeping them in order.
1. Cn1cc(CN2CC3(C2)C2=C(CC(C)(C)CC2=O)Nc2n[nH]cc23)cn1
2. CC[C@@]1(c2cccc(-c3ccncc3C(F)(F)F)c2)C2=C(CC(C)(C)NC2=O)Nc2n[nH]cc21

1. > 5 µM
2. 1 to 5 µM

Reported IC50 for "CO[C@H]1C[C@@]2(C1)C1=C(CC(C)(C)CC1=O)Nc1n[nH]cc12" was > 5 µM

----------
biological target: GSK3α (GST-full length GSK3α) (Homo sapiens (Human), UniProt P49840); test: GSK3α TR-FRET kinase assay; assay type: biochemical; details: 1 nM GSK3α, 4 μM ATP, 30 minute preincubation; read-out: GSK3-A TR-FRET BIOCHEMICAL (TR-FRET); IC50
pIC50: −log10 of the molar value.
Assign pIC50 to each entry below.

> print(dat)
                                   compound  propertyname    testresult
1  CC1(C)CC(=O)C2=C(C1)Nc1n[nH]cc1C21COC2(CN(S(=O)(=O)c3ccccc3)C2)C1 (stereo not shown) [Compound 913002]         pIC50  6.00 to 7.00
2  CC(=O)N1CC2(C1)C[C@]1(CO2)C2=C(CC(C)(C)CC2=O)Nc2n[nH]cc21 [Compound 926861]         pIC50        ≥ 7.00
3  CCC1(c2cccc(C(F)(F)F)c2)C2=C(CC(C(C)(C)C)NC2=O)Nc2n[nH]cc21 (stereo not shown) [Compound 945921]         pIC50  5.30 to 6.00
4  CCC1(c2cccc(-c3cnn4c3CCCC4)c2)C2=C(CC(C)(C)NC2=O)Nc2n[nH]cc21 (stereo not shown) [Compound 945603]         pIC50        ≥ 7.00
5  CC1(C)CC(=O)C2=C(C1)Nc1n[nH]cc1C21COC2(CN(C(=O)c3cccc(F)c3)C2)C1 (stereo not shown) [Compound 947283]         pIC50        ≥ 7.00

Please supply pIC50 for each of the following items, keeping them in order.
1. CCC1(c2cccc(-c3cnn(C)c3)c2)C2=C(CC(C)(C)NC2=O)Nc2n[nH]cc21 (stereo not shown) [Compound 943912]
2. CC1(C)CC(=O)C2=C(C1)Nc1n[nH]cc1C21COC2(CN(C(=O)CC3CCCC3)C2)C1 (stereo not shown) [Compound 947293]

["≥ 7.00", "≥ 7.00"]
